Data credit: ChEMBL document CHEMBL1152998

Consider the following compounds; for each one, report its pIC50.
# MEASURED ON: Tyrosine-protein phosphatase non-receptor type 1 (Homo sapiens, UniProt P18031)
# Sequence (P18031 whole entry): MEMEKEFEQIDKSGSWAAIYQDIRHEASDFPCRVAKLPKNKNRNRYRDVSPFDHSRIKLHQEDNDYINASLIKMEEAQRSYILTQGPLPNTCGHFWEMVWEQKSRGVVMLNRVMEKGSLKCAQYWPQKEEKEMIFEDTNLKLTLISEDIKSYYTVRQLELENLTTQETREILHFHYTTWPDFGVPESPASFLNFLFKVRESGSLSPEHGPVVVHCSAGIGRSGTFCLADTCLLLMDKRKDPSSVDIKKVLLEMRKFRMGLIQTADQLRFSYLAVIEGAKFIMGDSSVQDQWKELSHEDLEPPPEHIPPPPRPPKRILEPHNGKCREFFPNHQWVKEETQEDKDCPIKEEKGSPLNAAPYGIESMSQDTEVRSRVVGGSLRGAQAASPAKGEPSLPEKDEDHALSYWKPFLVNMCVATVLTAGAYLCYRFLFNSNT
Conceptually, pIC50 converts a concentration in mol/L into minus its log10.

Query: I'm curious: which pIC50 was measured for `COc1cc(C)ccc1OCCn1cccc1/C=C1\C(=O)NC(=O)N(c2ccc(C)c(Cl)c2)C1=O` tested on Tyrosine-protein phosphatase non-receptor type 1 (Homo sapiens, UniProt P18031)?
Result: 4.46

Query: Queued: `O=C1NC(=O)N(c2ccccc2)C(=O)/C1=C\c1cn(Cc2cccc3ccccc23)c2ccccc12`
Result: 4.92
